Origin of measurements: patent US9115072B2

experiment: Rat oral single-dose pharmacokinetic study; type: in vivo; details: male, Sprague-Dawley, rat, plasma; 100 mg/kg single oral gavage; time 24 HR; read-out: Compound EH concentration in rat plasma
ENDPOINT_NAME: concentration at 24 h (nM)
Give just the number in nM; leave the unit off.

Incoming: Give the reported concentration at 24 h for this compound. Cc1ccc(CC(=O)O)cc1OCc1c(C)cccc1C [Compound EH]
Outgoing: 0

###

target: human URAT1 (Homo sapiens, UniProt Q96S37); construct: The full-length hURAT1 cDNA was obtained from the vector pCMV6-XL5 and subcloned into the expression vector pCMV6-Neo; experiment: URAT1 inhibition assay, [8-14C] urate uptake in hURAT1-HEK cells; format: cell-based; conditions: drug concentration typically 10 micromolar, 50 μM [8-14C] urate, read-out: % of Inhibition (uric acid uptake)
Sequence (Q96S37 whole entry): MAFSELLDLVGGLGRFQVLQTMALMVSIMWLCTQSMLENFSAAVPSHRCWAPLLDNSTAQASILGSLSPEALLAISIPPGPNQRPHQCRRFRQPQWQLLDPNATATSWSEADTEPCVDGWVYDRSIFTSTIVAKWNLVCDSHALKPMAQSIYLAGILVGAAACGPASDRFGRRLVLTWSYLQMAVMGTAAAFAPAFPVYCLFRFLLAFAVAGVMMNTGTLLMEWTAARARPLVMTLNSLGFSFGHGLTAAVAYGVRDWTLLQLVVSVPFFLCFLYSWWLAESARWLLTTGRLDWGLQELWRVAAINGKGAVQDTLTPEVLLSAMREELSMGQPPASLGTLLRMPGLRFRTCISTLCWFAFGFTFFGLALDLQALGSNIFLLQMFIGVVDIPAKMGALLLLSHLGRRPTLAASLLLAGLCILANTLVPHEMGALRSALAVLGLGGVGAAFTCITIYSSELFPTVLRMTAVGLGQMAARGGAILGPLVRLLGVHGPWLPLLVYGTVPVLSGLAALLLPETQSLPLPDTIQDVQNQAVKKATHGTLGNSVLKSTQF
Structures can show the parent of a compound that is named as a salt.
# binarize inhibition at 10 µM: threshold 60% inclusive, high side fulfilled, low side not fulfilled

Incoming: Decide: is the reported value of inhibition at 10 µM for Cc1cccc(C)c1COc1cccc(C(=O)CCCC(=O)O)c1 [CD] equal to or greater than 60%?
Outgoing: fulfilled

Incoming: Decide: is the reported value of inhibition at 10 µM for Cc1ccccc1COc1cccc(C(=O)CCC(=O)O)c1 [AN] equal to or greater than 60%?
Outgoing: not fulfilled

Incoming: Decide: is the reported value of inhibition at 10 µM for O=C(O)Cc1cccc(OCc2c(F)cccc2F)c1 [DR] equal to or greater than 60%?
Outgoing: fulfilled

Incoming: Decide: is the reported value of inhibition at 10 µM for O=C(O)CCC(=O)c1cccc(OCc2c(Cl)cccc2Cl)c1 [DS] equal to or greater than 60%?
Outgoing: fulfilled

Incoming: Decide: is the reported value of inhibition at 10 µM for O=C(O)Cc1cccc(OCc2ccc(C(F)(F)F)cc2)c1 [DU] equal to or greater than 60%?
Outgoing: not fulfilled

Incoming: Decide: is the reported value of inhibition at 10 µM for Cc1cccc(C)c1COc1cccc(C(=O)C(=O)O)c1 [CQ] equal to or greater than 60%?
Outgoing: fulfilled

Incoming: Decide: is the reported value of inhibition at 10 µM for Cc1cccc(Cl)c1COc1cccc(CC(=O)O)c1 [EG] equal to or greater than 60%?
Outgoing: fulfilled

Incoming: Decide: is the reported value of inhibition at 10 µM for Cc1cc(C)cc(COc2cccc(CC(=O)O)c2)c1 [DW] equal to or greater than 60%?
Outgoing: not fulfilled

Incoming: Decide: is the reported value of inhibition at 10 µM for Cc1cccc(C)c1COc1ccc(C(=O)CCC(=O)O)cc1 [BM] equal to or greater than 60%?
Outgoing: not fulfilled

Incoming: Decide: is the reported value of inhibition at 10 µM for Cc1cccc(F)c1COc1cccc(C(=O)CCC(=O)O)c1 [BJ] equal to or greater than 60%?
Outgoing: fulfilled

Incoming: Decide: is the reported value of inhibition at 10 µM for O=C(O)CCC(=O)c1ccc(OCc2ccccc2C(F)(F)F)cc1 [AY] equal to or greater than 60%?
Outgoing: not fulfilled

Incoming: Decide: is the reported value of inhibition at 10 µM for Cc1cccc(C)c1COc1ccc(CC(=O)O)cc1 [DO] equal to or greater than 60%?
Outgoing: fulfilled

Incoming: Decide: is the reported value of inhibition at 10 µM for Cc1cccc(C)c1COc1cccc(CCCC(=O)O)c1 [BS] equal to or greater than 60%?
Outgoing: not fulfilled

Incoming: Decide: is the reported value of inhibition at 10 µM for COc1cccc(OC)c1COc1cccc(CC(=O)O)c1 [DY] equal to or greater than 60%?
Outgoing: fulfilled

Incoming: Decide: is the reported value of inhibition at 10 µM for O=C(O)CCC(=O)c1cccc(OCc2c(F)cccc2F)c1 [AW] equal to or greater than 60%?
Outgoing: fulfilled

Incoming: Decide: is the reported value of inhibition at 10 µM for O=C(O)CCC(=O)c1cccc(OCC2CC2)c1 [BH] equal to or greater than 60%?
Outgoing: fulfilled

Incoming: Decide: is the reported value of inhibition at 10 µM for CN(CCOc1ccc(C(=O)CCC(=O)O)cc1)Cc1ccccc1F [AM, hydrochloride] equal to or greater than 60%?
Outgoing: not fulfilled

Incoming: Decide: is the reported value of inhibition at 10 µM for CCC(C(=O)O)c1cccc(OCc2c(C)cccc2C)c1 (centres unmarked) [DV] equal to or greater than 60%?
Outgoing: fulfilled
